System: OVCAR-8 ovarian
Experiment: NCI tumour cell line growth inhibition, 384-well format
Kindly supply the reported TGI values for the records listed here.
Answers are plain numbers, in µM.

[[record]]
compound = "Cc1nc(NC(=O)N2CCC[C@H]2C(N)=O)sc1-c1ccnc(C(C)(C)C(F)(F)F)c1"
readout_label = "TGI"
reported_value = 88.7


Query block: Which value of TGI has been reported for CC(=O)N1CC(F)(F)c2c(Sc3ncc(N4CCC5(CC4)COC[C@H]5N)nc3N)cccc21 in the records?
Result block: 30.8
